Sourced from paper PMC10447463

assay type: physicochemical; conditions: ThT fluorescence category; 1 if Rel. ThT >2
endpointLabel: ThT Cat.

Sample answers from the record:
* KIKIKIKIWW | 1 (ThT. Cat is 1, if Rel. ThT >2)
* KAKAQANM | 0 (ThT-inactive (N-Fold <2))
* KFKFQFFF | 1 (ThT. Cat is 1, if Rel. ThT >2)
* CKYKYQY | 1 (ThT. Cat is 1, if Rel. ThT >2)

query: Item under review: CEIEIQINMWQ . Reported ThT Cat.?
result: 1 (ThT. Cat is 1, if Rel. ThT >2)

* * *

test: Zeta-potential measurement; type: physicochemical; details: zeta-potential of the peptide assemblies; mean; Figure 3A source data
endpointLabel: Zeta-Potential / mV (mV)
Numeric only. Scale: mV

query: Endpoint output: Zeta-Potential / mV of RGDKIKIQINM . Value?
result: 16.43

query: Then what about the substance KIKQIINM ?
result: 16.3

query: Next substance: CSISIQI
result: -25.93

query: Lookup QCKIKIQINMWQ
result: 11.73

* * *

type: physicochemical; settings: ThT category; 1 if Rel. ThT >2
endpointLabel: ThT Cat,

* CKFKFQFNM | 1 (ThT. Cat is 1, if Rel. ThT >2)
* RGDKIRGDKI | 0 (ThT-inactive (N-Fold <2))
* KIKIKIKI | 1 (ThT. Cat is 1, if Rel. ThT >2)

query: Reported ThT Cat, for EIEIEIEI : what is it?
result: 0 (ThT-inactive (N-Fold <2))

query: Please give the result for CHLHLQL too.
result: 1 (ThT. Cat is 1, if Rel. ThT >2)

query: One more substance: RGDCKFKFQF
result: 1 (ThT. Cat is 1, if Rel. ThT >2)

query: KIKIKIQINMWQ , same question.
result: 0 (ThT-inactive (N-Fold <2))

query: And the next one, KIKIQIAMWQ ?
result: 1 (ThT. Cat is 1, if Rel. ThT >2)

query: // next record HHHHKIKIKIKIWWWW
result: 1 (ThT. Cat is 1, if Rel. ThT >2)

query: And what about the substance CKIKIQI ?
result: 1 (ThT. Cat is 1, if Rel. ThT >2)

query: Ok, now CKIKQIIRGD
result: 0 (ThT-inactive (N-Fold <2))

query: One more substance: KIKIQINMWQRGD
result: 0 (ThT-inactive (N-Fold <2))

* * *

assay: Turbidity, derived count rate of scattered light; format: physicochemical; conditions: log10 of derived count rate of scattered light (turbidity)
endpointLabel: Log10 Count Rate
Give your answer as a number; write no unit.

Some entries whose results are on file:
- CKYKYQY: 3.026
- KFKFKFQF: 3.015
- KIKIQIC: 2.992
- KIKIKIQI: 3

Lab note: next substance to report on.
query: I have this substance here, KIKIQII , and I need its recorded Log10 Count Rate.
result: 3.017

* * *

Each record here notes measured Log10 Count Rate.
experiment: Turbidity, derived count rate of scattered light; format: physicochemical; details: turbidity, Log10 of derived count rate of scattered light; Figure 3A source data
Please reply with the value in numeric form only.

* KWKWQW | 3.189
* RGDCKIKIQINM | 3.2102
* KIEIQINM | 2.439

query: Log10 Count Rate for HHHHEIEIEIEI ?
result: 2.014

query: Lookup KIKIQINMWA
result: 3.042

query: Note, next up: KIKIQIW
result: 2.161

query: KAKAKAQA , same question.
result: 1.886

query: Now give it for KIKIQIAMWQ too.
result: 2.733

* * *

assay: Zeta-potential measurement; format: physicochemical; settings: zeta-potential of peptide; source data of Figure 2C
endpointLabel: Zeta-Potential / mV

- QCKFKQFFNMWQ: 11.04 mV
- CKWKWQW: 16.02 mV
- QCKIKIQINM: 11.15 mV
- CEIEIQI: -24.43 mV
- HIHIQIC: -5.093 mV

query: Consider the substance shown here: CETMYDKILKNLSRSR What is its recorded Zeta-Potential / mV?
result: -1.487 mV

query: Now the substance KNERIKNERI
result: -11.61 mV

query: Would you kindly repeat that for KAKAKAQA ?
result: -5.297 mV

query: Param item: ILKNLSRSRKIKIQINMWQ
result: 17.9 mV

query: Follow-up item: RGDCKIKIQINM
result: 12.35 mV

* * *

system: TZM-bl cells; type: cell-based; settings: CellTiter-Glo, peptide 0.26 µM, mean of n = 3 replicates
Reported viability 0.26 µM is given for each of the following substances.
Write the number on its own, no unit after it.

Known results for substances:
- CKFKFQFNMWQ [BL2]: 106
- HIHIQIC [CN12]: 99.21
- KIKIKIKIYYYY [JR7]: 98.76

query: viability 0.26 µM of CKFKQFFNMWQ [CK13] on TZM-bl cells?
result: 122.3

query: Next entry: KFKFQFNMWQ [JG4]
result: 119.1

query: Record: RLRLTLC [CN13]
result: 120.7

* * *

Measured Tht category (> 2 to blank = +), listed per entry for reference.
assay type: physicochemical; details: Fig S10 panel D

Example substances with recorded Tht category (> 2 to blank = +):
• IKVAVKIKIQINM = 0 (ThT-inactive (N-Fold <2))
• CKYKYQY = 1 (ThT. Cat is 1, if Rel. ThT >2)
• RGECKFKFQF = 1 (ThT. Cat is 1, if Rel. ThT >2)
• HGDKCHGDKC = 0 (ThT-inactive (N-Fold <2))
• KFKFQFFF = 1 (ThT. Cat is 1, if Rel. ThT >2)

Alright, here's another substance for you.
query: What does the record list as Tht category (> 2 to blank = +) for HHHHKAKAKAKAWWWW ?
result: 1 (ThT. Cat is 1, if Rel. ThT >2)

* * *

Recorded ThT Cat. values for a group of substances are listed next.
type: physicochemical; settings: ThT fluorescence category; 1 if Rel. ThT >2

query: Bench note: what ThT Cat. did EFEFQF show?
result: 1 (ThT. Cat is 1, if Rel. ThT >2)

query: Then this substance: RGDCKFKFQF
result: 1 (ThT. Cat is 1, if Rel. ThT >2)

query: Next substance: KIKIQIAMWQ
result: 1 (ThT. Cat is 1, if Rel. ThT >2)

query: Try this substance next: KAKAKAQA
result: 0 (ThT-inactive (N-Fold <2))

query: Also check EIEIEIEI
result: 0 (ThT-inactive (N-Fold <2))

* * *

experiment: Zeta-potential measurement; format: physicochemical; conditions: zeta-potential of the peptide assemblies; mean; Figure 3A source data
endpointLabel: Zeta-Potential / mV
Write down the value, and be sure its unit follows.

# count of solved cases: 3
* KIKIQINMWQRGD | 1.69 mV
* KIRGKFEKED | -12.7 mV
* KNERIKNERI | -16 mV

query: Recorded Zeta-Potential / mV for CHLHLQL , please?
result: -12.27 mV

query: Quick one: CEIEIQINM
result: -15.3 mV

query: How about this substance: KFKFEFEF
result: -2.55 mV

query: Thanks! And RLRLTLC ?
result: 19.67 mV

query: Item: KLKLKLQL
result: 8.39 mV

query: Repeat for the following substance: EIEIQINMWQ
result: -19.13 mV

query: Again, but for KVKVQVV
result: -7.92 mV

query: For QCKAKAQANM then?
result: -8.36 mV

query: Same again, this time with KAKAQA
result: -14.08 mV

query: Next record, please: KIKIQIMQWN
result: 9.44 mV

* * *

assay type: physicochemical; settings: ThT category; 1 if Rel. ThT >2
endpointLabel: ThT Cat,

• KLKLKLQL = 0 (ThT-inactive (N-Fold <2))
• RGDKIKIQIC = 1 (ThT. Cat is 1, if Rel. ThT >2)
• CRFRVPF = 0 (ThT-inactive (N-Fold <2))
• KIKIQIMQWN = 0 (ThT-inactive (N-Fold <2))
• EIEIQINMWQ = 1 (ThT. Cat is 1, if Rel. ThT >2)
• CKAKAQANM = 0 (ThT-inactive (N-Fold <2))
• NMWQKIKQII = 0 (ThT-inactive (N-Fold <2))
• RGDKIKIQINMWQ = 0 (ThT-inactive (N-Fold <2))
• KIKIQIRGD = 1 (ThT. Cat is 1, if Rel. ThT >2)
• SISISRRI = 0 (ThT-inactive (N-Fold <2))

query: State the recorded ThT Cat, for this entry: KIKIQIII
result: 1 (ThT. Cat is 1, if Rel. ThT >2)

query: Similarly, HHHHKAKAKAKAYYYY ?
result: 0 (ThT-inactive (N-Fold <2))

query: Try this substance next: QCKIKIQINMWQ
result: 1 (ThT. Cat is 1, if Rel. ThT >2)
